Target: [V390I/Y410E/E274V]-CfEcR (Choristoneura fumiferana)
Construct: assay construct b835
Assay type: cell-based
Conditions: rac, 3T3 Cells, read-out: EC50
reported.property: log10 of EC50 (log10 of the value in nM)

[[record]]
compound = "CCCC(N(NC(=O)c1cccc(OC)c1CC)C(=O)c1cc(C)cc(C)c1)C(C)(C)C (racemic) [rac-2]"
reported = 0.59

[[record]]
compound = "CCCC(N(NC(=O)c1cccc(OC)c1C)C(=O)c1cc(OC)c(C)c(OC)c1)C(C)(C)C (racemic) [rac-51]"
reported = 1.18

[[record]]
compound = "CCCC(N(NC(=O)c1cc(OC)c(C)c(OC)c1)C(=O)c1cc(C)cc(C)c1)C(C)(C)C (racemic) [rac-19]"
reported = 3.59

[[record]]
compound = "CCCC(N(NC(=O)c1ccc2c(c1C)OCO2)C(=O)c1cc(C)cc(C)c1)C(C)(C)C (racemic) [rac-20]"
reported = 1.08

[[record]]
compound = "CCCC(N(NC(=O)c1ccc2c(c1CC)OCCO2)C(=O)c1cc(C)cc(C)c1)C(C)(C)C (racemic) [rac-22]"
reported = -1.23

[[record]]
compound = "CCCC(N(NC(=O)c1cccc(OC)c1)C(=O)c1cc(C)cc(C)c1)C(C)(C)C (racemic) [rac-9]"
reported = 0.85

[[record]]
compound = "CCCC(N(NC(=O)c1ccc(OC)c(OC)c1)C(=O)c1cc(C)cc(C)c1)C(C)(C)C (racemic) [rac-17]"
reported = 2.86

[[record]]
compound = "CCCC(N(NC(=O)c1ccccc1Cl)C(=O)c1cc(C)cc(C)c1)C(C)(C)C (racemic) [rac-6]"
reported = 0.08

[[record]]
compound = "CCCC(N(NC(=O)c1ccc(C)cc1)C(=O)c1cc(C)cc(C)c1)C(C)(C)C (racemic) [rac-11]"
reported = 0.80

[[record]]
compound = "CCCC(N(NC(=O)c1ccccc1F)C(=O)c1cc(C)cc(C)c1)C(C)(C)C (racemic) [rac-5]"
reported = 0.04

[[record]]
compound = "CCCC(N(NC(=O)c1c(Cl)cccc1Cl)C(=O)c1cc(C)cc(C)c1)C(C)(C)C (racemic) [rac-3]"
reported = 1.09

[[record]]
compound = "CCCC(N(NC(=O)c1cccc(Cl)c1)C(=O)c1cc(C)cc(C)c1)C(C)(C)C (racemic) [rac-10]"
reported = 1.38

[[record]]
compound = "C=CCC(C1CCCCC1)N(NC(=O)c1cccc(OC)c1C)C(=O)c1cc(OC)c(C)c(OC)c1 (racemic) [rac-61]"
reported = 2.72

[[record]]
compound = "CCCC(N(NC(=O)c1cc(C)oc1C)C(=O)c1cc(C)cc(C)c1)C(C)(C)C (racemic) [rac-26]"
reported = 1.92

[[record]]
compound = "CCCC(N(NC(=O)c1ccc(Cl)nc1)C(=O)c1cc(C)cc(C)c1)C(C)(C)C (racemic) [rac-28]"
reported = 1.67


###

Target: [V390I/Y410E/E274V]-CfEcR (Choristoneura fumiferana, UniProt O77240)
Construct: assay construct b835
Format: cell-based
Conditions: S, 3T3 Cells, relative to GS-E ligand
The class of a record is decided solely by its measured RMFI (relative maximum fold induction); consult low = under 0.4, medium = from 0.4 up to 0.6, high = 0.6 and over

[[record]]
compound_string = "CCC[C@H](N(NC(=O)c1ccc(C)cc1)C(=O)c1cc(C)cc(C)c1)C(C)(C)C"
answer_label = "medium"

[[record]]
compound_string = "CCC[C@H](N(NC(=O)c1ccccc1F)C(=O)c1cc(C)cc(C)c1)C(C)(C)C"
answer_label = "high"

[[record]]
compound_string = "CCC[C@H](N(NC(=O)c1c(F)cccc1F)C(=O)c1cc(C)cc(C)c1)C(C)(C)C"
answer_label = "high"

[[record]]
compound_string = "CCC[C@H](N(NC(=O)c1cccs1)C(=O)c1cc(C)cc(C)c1)C(C)(C)C"
answer_label = "medium"

[[record]]
compound_string = "CCC[C@H](N(NC(=O)c1ccc(Cl)nc1)C(=O)c1cc(C)cc(C)c1)C(C)(C)C"
answer_label = "medium"

[[record]]
compound_string = "CCC[C@H](N(NC(=O)c1ccc(CC)cc1)C(=O)c1cc(C)cc(C)c1)C(C)(C)C"
answer_label = "high"

[[record]]
compound_string = "CCC[C@@H](C1CCCCC1)N(NC(=O)c1ccc(CC)cc1)C(=O)c1cc(C)cc(C)c1"
answer_label = "low"

[[record]]
compound_string = "CCC[C@H](N(NC(=O)c1cccnc1Cl)C(=O)c1cc(C)cc(C)c1)C(C)(C)C"
answer_label = "high"

[[record]]
compound_string = "CCC[C@H](N(NC(=O)c1ccccc1C)C(=O)c1cc(C)cc(C)c1)C(C)(C)C"
answer_label = "medium"

[[record]]
compound_string = "CCC[C@H](N(NC(=O)OC(C)(C)C)C(=O)c1cc(C)cc(C)c1)C(C)(C)C"
answer_label = "low"

[[record]]
compound_string = "CCC[C@H](N(NC(=O)c1cc(OC)c(C)c(OC)c1)C(=O)c1cc(C)cc(C)c1)C(C)(C)C"
answer_label = "low"

[[record]]
compound_string = "CCC[C@H](N(NC(=O)c1ccccc1)C(=O)c1cc(C)cc(C)c1)C(C)(C)C"
answer_label = "low"

[[record]]
compound_string = "CCC[C@H](N(NC(=O)c1ccccc1Cl)C(=O)c1cc(C)cc(C)c1)C(C)(C)C"
answer_label = "high"

[[record]]
compound_string = "CCC[C@@H](C1CCCCC1)N(NC(=O)c1cccc(OC)c1CC)C(=O)c1cc(C)cc(C)c1"
answer_label = "medium"

[[record]]
compound_string = "CCC[C@H](N(NC(=O)c1cc(C)oc1C)C(=O)c1cc(C)cc(C)c1)C(C)(C)C"
answer_label = "medium"

[[record]]
compound_string = "CCC[C@@H](C1CCCCC1)N(NC(=O)c1ccccc1)C(=O)c1cc(C)cc(C)c1"
answer_label = "medium"

[[record]]
compound_string = "CCC[C@H](N(NC(=O)c1ccccc1Br)C(=O)c1cc(C)cc(C)c1)C(C)(C)C"
answer_label = "low"

[[record]]
compound_string = "CCC[C@H](N(NC(=O)c1cccc(OC)c1C)C(=O)c1cc(C)cc(C)c1)C(C)(C)C"
answer_label = "medium"


###

Target: [V390I/Y410E/E274V]-CfEcR (Choristoneura fumiferana, UniProt O77240)
Construct: assay construct b835
Assay type: cell-based
Conditions: S, 3T3 Cells, relative to GS-E ligand
Each entry below lists one item and its recorded RMFI (relative maximum fold induction) value.
reported.property: RMFI (relative maximum fold induction)

[[record]]
compound = "CCC[C@H](N(NC(=O)c1c(Cl)cccc1Cl)C(=O)c1cc(C)cc(C)c1)C(C)(C)C [Example 41]"
reported_property = "RMFI (relative maximum fold induction)"
reported = 0.62

[[record]]
compound = "CCC[C@H](N(NC(=O)c1cccc(C)c1)C(=O)c1cc(C)cc(C)c1)C(C)(C)C [Example 37]"
reported_property = "RMFI (relative maximum fold induction)"
reported = 0.47

[[record]]
compound = "CCC[C@@H](C1CCCCC1)N(NC(=O)c1cccc(OC)c1)C(=O)c1cc(C)cc(C)c1 [Example 58]"
reported_property = "RMFI (relative maximum fold induction)"
reported = 0.42

[[record]]
compound = "CCC[C@H](N(NC(=O)c1cccc(OC)c1CC)C(=O)c1cc(C)cc(C)c1)C(C)(C)C [Example 31]"
reported_property = "RMFI (relative maximum fold induction)"
reported = 0.57


###

Biological target: wild-type Choristoneura fumiferana EcR (D, E and F domains) (Choristoneura fumiferana, UniProt O77240)
Format: cell-based
Details: R; WT-CtEcR, 3T3 Cells; relative to GS-E ligand
Each entry below lists one item and its recorded RMFI (relative maximum fold induction) value.
reported.property: RMFI (relative maximum fold induction)

[[record]]
molecule = "CCC[C@@H](N(NC(=O)OC(C)(C)C)C(=O)c1cc(C)cc(C)c1)C(C)(C)C [Example 49]"
reported_property = "RMFI (relative maximum fold induction)"
reported = 0.15

[[record]]
molecule = "CCC[C@@H](N(NC(=O)c1cccs1)C(=O)c1cc(C)cc(C)c1)C(C)(C)C [Example 25]"
reported_property = "RMFI (relative maximum fold induction)"
reported = 0.42

[[record]]
molecule = "C=CC[C@@H](N(NC(=O)OCc1ccccc1)C(=O)c1cc(C)cc(C)c1)C(C)(C)C [Example 1.5]"
reported_property = "RMFI (relative maximum fold induction)"
reported = 0.01

[[record]]
molecule = "CCC[C@@H](N(NC(=O)c1ccccc1)C(=O)c1cc(C)cc(C)c1)C(C)(C)C [Example 2]"
reported_property = "RMFI (relative maximum fold induction)"
reported = 0.74


###

Target: [V390I/Y410E/E274V]-CfEcR (Choristoneura fumiferana, UniProt O77240)
Construct: assay construct b835
Type: cell-based
Conditions: S, 3T3 Cells
Each entry below lists one item and its recorded EC50 value.
reported.property: EC50

[[record]]
compound = "CCC[C@@H](C1CCCCC1)N(NC(=O)c1ccc(CC)cc1)C(=O)c1cc(C)cc(C)c1 [Example 59]"
target_under_test = "[V390I/Y410E/E274V]-CfEcR (Choristoneura fumiferana, UniProt O77240)"
reported_property = "EC50"
reported = "~30 nM"

[[record]]
compound = "CCC[C@H](N(NC(=O)c1cc(OC)c(C)c(OC)c1)C(=O)c1cc(C)cc(C)c1)C(C)(C)C [Example 42]"
target_under_test = "[V390I/Y410E/E274V]-CfEcR (Choristoneura fumiferana, UniProt O77240)"
reported_property = "EC50"
reported = "~7000 nM"

[[record]]
compound = "CCC[C@H](N(NC(=O)c1c(Cl)cccc1Cl)C(=O)c1cc(C)cc(C)c1)C(C)(C)C [Example 41]"
target_under_test = "[V390I/Y410E/E274V]-CfEcR (Choristoneura fumiferana, UniProt O77240)"
reported_property = "EC50"
reported = "~700 nM"

